- target_desc: CyclinA2/CDK2 (Homo sapiens)
- Construct: purchased CRELUX Protein Services
- test_name: Fluorescence Polarization (FP) competitive binding assay, Cyclin A2/Cdk2;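 further: plates equilibrated two hours at room temperature before polarization reading, IC50 fitted from eight-concentration compound titration curves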
- condition: 8 nM Cyclin A2/Cdk2, 2 nM FAM probe; average of 2-3 independent experiments; read-out: Cyclin A FP IC50
*1 amine or outer side, *2 acyl side, *3 side chain or, on linkers, in order; H or OH if unused. Where a SMILES comes first, the peptide text is derived from it. Bridges are numbered along the chain shown (N, C = ends). [ ]: non-standard residue; d: D form. The star is where a group is joined. X205 = CC(C)C(=O)N1[C@@H]2COC[C@H]1C=C(c1ccc(F)cc1C[C@@H](C(=O)[*:2])N(C)[*:1])C2; X75 = CC(C)C(=O)N1C2C=C(c3ccc(Cl)cc3C[C@@H](C(=O)[*:2])N(C)[*:1])CC1COC2; X46 = CN([C@@H](Cc1cc(Cl)ccc1-c1ccc(S(C)(=O)=O)cc1)C(=O)[*:2])[*:1]; NMehhhLys(Me) = CN([C@@H](CCCCCCCN(C)[*:3])C(=O)[*:2])[*:1]; X44 = Cc1nnc(-c2ccc(Cl)cc2C[C@@H](C(=O)[*:2])N(C)[*:1])o1; NMe3Pal(2-OcPr,5-F) = CN[C@@H](Cc1cc(F)cnc1OC1CC1)C(=O)O; NMe(hhhLys) = CN([C@@H](CCCCCCCN[*:3])C(=O)[*:2])[*:1]; Cyclobutanecarbonyl(1-CF3) = O=C(C1(C(F)(F)F)CCC1)*; cBuCO(3,3-F2-1-CF3) = O=C(C1(C(F)(F)F)CC(F)(F)C1)*; X161 = Cc1ccc(F)cc1C[C@@H](C(=O)[*:2])N(C)[*:1]; Pro(trans-4-F) = O=C(O)[C@@H]1C[C@@H](F)CN1; Gly(cPr) = N[C@H](C(=O)O)C1CC1
Note to self: IC50 under 30 nM means met, ties and anything higher get not met.

CC(=O)N1CC=C(c2ccc(F)cc2C[C@H]2C(=O)N(C)CCCCC=CC[C@H](N(C)C(=O)[C@@H](NC(=O)[C@@H]3C[C@@H](F)CN3C(=O)C3(C(F)(F)F)CC(F)(F)C3)C3CC3)C(=O)N[C@@H](CC(C)C)C(=O)N2C)CC1 : not met
CC(C)C[C@@H]1NC(=O)[C@@H](N(C)C(=O)[C@@H](NC(=O)[C@@H]2C[C@@H](F)CN2C(=O)C2(C(F)(F)F)CC(F)(F)C2)C2CC2)CCCCCCCN(C)C(=O)[C@H](Cc2cc(Cl)ccc2-c2ccc(S(C)(=O)=O)cc2)N(C)C1=O [Example 262] ({cBuCO(3,3-F2-1-CF3)}-[Pro(trans-4-F)][Gly(cPr)][NMehhhLys(Me)]L[X46]; lactam 3-C) : met
CC(C)C[C@@H]1NC(=O)[C@@H](N(C)C(=O)[C@@H](NC(=O)[C@@H]2C[C@@H](F)CN2C(=O)C2(C(F)(F)F)CC(F)(F)C2)C2CC2)CC=CCCCCN(C)C(=O)[C@H](Cc2cc(F)ccc2-c2cnn(S(C)(=O)=O)c2)N(C)C1=O : not met

Task: # check: IC50 < 30 nM for Cc1ccc(F)cc1C[C@H]1C(=O)NCCCCCCC[C@H](N(C)C(=O)[C@@H](NC(=O)[C@@H]2C[C@@H](F)CN2C(=O)C2(C(F)(F)F)CC(F)(F)C2)C2CC2)C(=O)N[C@@H](CC(C)C)C(=O)N1C [Example 264] ({cBuCO(3,3-F2-1-CF3)}-[Pro(trans-4-F)][Gly(cPr)][NMe(hhhLys)]L[X161]; lactam 3-C)
Output: not met

Task: # check: IC50 < 30 nM for Cc1nnc(-c2ccc(Cl)cc2C[C@H]2C(=O)N(C)CCCCCCC[C@H](N(C)C(=O)[C@@H](NC(=O)[C@@H]3C[C@@H](F)CN3C(=O)C3(C(F)(F)F)CCC3)C3CC3)C(=O)N[C@@H](CC(C)C)C(=O)N2C)o1 [Example 163] ({Cyclobutanecarbonyl(1-CF3)}-[Pro(trans-4-F)][Gly(cPr)][NMehhhLys(Me)]L[X44]; lactam 3-C)
Output: met

Task: # check: IC50 < 30 nM for CCOC(=O)N1CC=C(c2ccc(Cl)cc2C[C@H]2C(=O)NCCCCC=CC[C@H](N(C)C(=O)[C@@H](NC(=O)[C@@H]3C[C@@H](F)CN3C(=O)C3(C(F)(F)F)CC(F)(F)C3)C3CC3)C(=O)N[C@@H](CC(C)C)C(=O)N2C)CC1
Output: not met

Task: # check: IC50 < 30 nM for CC(C)C[C@@H]1NC(=O)[C@@H](N(C)C(=O)[C@@H](NC(=O)[C@@H]2C[C@@H](F)CN2C(=O)C2(C(F)(F)F)CC(F)(F)C2)C2CC2)CCCCCCCNC(=O)[C@H](Cc2cc(Cl)ccc2C2=CC3COCC(C2)N3C(=O)C(C)C)N(C)C1=O (stereo partly drawn) [Example 194] ({cBuCO(3,3-F2-1-CF3)}-[Pro(trans-4-F)][Gly(cPr)][NMe(hhhLys)]L[X75]; lactam 3-C)
Output: met

Task: # check: IC50 < 30 nM for CC(C)C[C@@H]1NC(=O)[C@@H](N(C)C(=O)[C@@H](NC(=O)[C@@H]2C[C@@H](F)CN2C(=O)C2(C(F)(F)F)CC(F)(F)C2)C2CC2)CCCCCCCNC(=O)[C@H](Cc2cc(F)ccc2C2=C[C@@H]3COC[C@H](C2)N3C(=O)C(C)C)N(C)C1=O [Example 325] ({cBuCO(3,3-F2-1-CF3)}-[Pro(trans-4-F)][Gly(cPr)][NMe(hhhLys)]L[X205]; lactam 3-C)
Output: met

Task: # check: IC50 < 30 nM for CC(C)C[C@@H]1NC(=O)[C@@H](N(C)C(=O)[C@@H](NC(=O)[C@@H]2C[C@@H](F)CN2C(=O)C2(C(F)(F)F)CCC2)C2CC2)CCCCCCCNC(=O)[C@H](Cc2cc(F)cnc2OC2CC2)N(C)C1=O [Example 134] ({Cyclobutanecarbonyl(1-CF3)}-[Pro(trans-4-F)][Gly(cPr)][NMe(hhhLys)]L[NMe3Pal(2-OcPr,5-F)]; lactam 3-C)
Output: not met
